# PROTOCOL_DETAILS: Oral bioavailability in rat at 20 mg/kg
# Assay type: ADME, organism-based
# COND: in vivo
ENDPOINT_NAME: bioavailability (%)
Your answer is read as %, so omit the unit and give the number.

For this compound ( CCOc1cccc(C2(N3CCN(c4ccccn4)CC3)C3CC(C)CC32)c1 (stereo unspecified) ), measured bioavailability is 53

* * *

# PROTOCOL_DETAILS: Drug uptake in rat brain at 10 mg/kg, ip after 15 mins
# Format: ADME, organism-based
# Set-up: dose 10 mg/kg, route intraperitoneal
# COND: read-out: Drug uptake
ENDPOINT_NAME: concentration at 0.25 h

For this compound ( CCOc1cccc(C2(N3CCN(c4ccccn4)CC3)C3CC(C)CC32)c1 (stereo unspecified) ), measured concentration at 0.25 h is > 100 nM
